Assay: soluble on expression in E. coli; label from the status in PepcDB or PDB records
Quantity Name: soluble on expression in E. coli

Residue Codes	Result
QADTAMIVQISADRKEINLVSIPRDSLVDVPQCETSKGTIPAQYNVMFNSIFAGAYKTGGDLSSAASCTLNAVNSLTGLNIQNFIVVDFAGLVKMIDSVGGVDLCIPQNVNDPYTGLNLDKGMHHLDGVAATQYARIRHGIGDGSDTSRTTRQQYLIKQLMSEALS	not soluble
MTSSPELARAVAATLARHVTDVVICPGSRNSPLSLELIARDDIRVHTRIDERSAAFLALGLARSSKRHVAVVTTSGTAVANCAPAMIEAAYSHTPLIMVSADRPERLHGTGANQTIEQRGIFNVVDTDHVVDITDLNSISFARNVIHINVALDVPLVDVLPEV	not soluble
MISKRNTPQRRHAILALLSEQGEVSVDALAKRFSTSEVTIRKDLAAMESHGLLLRRYGGAVPMPQELIGEAAQPVSPYKQAIGRAAAARIREHARIIIDSGSTTAAMIPELGHKPGLVVMTNSLNVVNALRELEHEPVLLMTGGTWDPHSESFQGQVAEQVLRSYDFDQLFIGADGIDLERGTTTFNELLGLSRVMAEVAREVIVMAEADKVGRRIPNQELPWSSIHTLITDERLESSAREQITARGVTLICTPVEALEHHHHHH	not soluble
